assay: in vivo; settings: beagle, dog, po, 5 mg/kg
quantity-kind: Cmax at 24 h (ng/mL)
Give bare numbers, in ng/mL.

Any idea what its Cmax at 24 h is? The compound is O=C(Nc1nc2cccc(C3CCC4(CC3)CN(C(=O)[C@@H]3CC3(F)F)C4)n2n1)C1CC1 2750

###

assay: Microsomal stability in mouse liver microsomes assessed as intrinsic clearance at 1 uM incubated for 60 mins in presence of NADPH regenerating system by LC-MS/MS analysis; format: ADME, Microsome; details: read-out: CLH
Hi there, I'd appreciate the recorded microsomal CLint at 1 µM for every entry that follows.

Below are some compounds; for each one, tell me its microsomal CLint at 1 µM.
1. O=C(Nc1nc2cccc(C3CCC4(CC3)CN(C(=O)[C@@H]3CC3(F)F)C4)n2n1)C1CC1
2. N#CCC(=O)N1CC2(CCC(c3cccc4nc(NC(=O)C5CC5)nn34)CC2)C1
3. O=C(Nc1nc2cccc(-c3ccc(CN4CCS(=O)(=O)CC4)cc3)n2n1)C1CC1

< 9.6 µL/min/mg
< 9.6 µL/min/mg
< 9.6 µL/min/mg

All figures here come from ChEMBL document CHEMBL5150077.
